target: ERBB2/HER2 (Homo sapiens (Human), UniProt P04626); test: Reaction Biology HotSpot kinase assay; type: biochemical; settings: 500 nM compound; read-out: Percentage kinase inhibition ERBB2/HER2
Sequence (P04626 23-1255): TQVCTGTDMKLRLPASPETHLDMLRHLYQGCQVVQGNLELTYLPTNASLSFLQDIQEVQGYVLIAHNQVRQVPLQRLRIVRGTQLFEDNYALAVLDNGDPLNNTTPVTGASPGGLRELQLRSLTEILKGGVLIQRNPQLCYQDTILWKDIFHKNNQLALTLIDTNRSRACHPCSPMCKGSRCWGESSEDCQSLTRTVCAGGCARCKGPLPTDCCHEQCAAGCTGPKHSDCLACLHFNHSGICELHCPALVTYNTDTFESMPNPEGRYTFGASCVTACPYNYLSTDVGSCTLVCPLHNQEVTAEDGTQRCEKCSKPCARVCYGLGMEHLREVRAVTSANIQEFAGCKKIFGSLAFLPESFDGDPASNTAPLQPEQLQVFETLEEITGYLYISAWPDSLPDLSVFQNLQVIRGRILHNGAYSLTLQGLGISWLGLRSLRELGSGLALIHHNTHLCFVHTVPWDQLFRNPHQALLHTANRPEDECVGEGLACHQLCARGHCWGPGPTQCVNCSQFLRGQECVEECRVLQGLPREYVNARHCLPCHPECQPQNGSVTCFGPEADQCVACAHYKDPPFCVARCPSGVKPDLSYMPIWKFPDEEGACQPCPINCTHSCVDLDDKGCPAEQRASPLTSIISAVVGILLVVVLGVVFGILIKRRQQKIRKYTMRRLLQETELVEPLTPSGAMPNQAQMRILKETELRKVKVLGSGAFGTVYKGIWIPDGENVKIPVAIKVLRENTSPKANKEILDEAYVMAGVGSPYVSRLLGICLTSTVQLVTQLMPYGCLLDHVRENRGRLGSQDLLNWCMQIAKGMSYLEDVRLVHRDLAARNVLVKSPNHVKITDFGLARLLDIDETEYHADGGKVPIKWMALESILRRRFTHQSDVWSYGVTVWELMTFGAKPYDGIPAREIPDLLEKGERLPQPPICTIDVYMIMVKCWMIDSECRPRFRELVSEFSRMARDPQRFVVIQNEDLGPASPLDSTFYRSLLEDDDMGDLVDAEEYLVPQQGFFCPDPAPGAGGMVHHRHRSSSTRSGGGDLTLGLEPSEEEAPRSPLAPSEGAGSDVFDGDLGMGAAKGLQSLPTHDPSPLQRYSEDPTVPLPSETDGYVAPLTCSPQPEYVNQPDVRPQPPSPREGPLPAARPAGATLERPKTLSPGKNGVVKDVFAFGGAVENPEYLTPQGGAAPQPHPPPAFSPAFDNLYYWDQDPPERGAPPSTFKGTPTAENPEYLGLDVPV
# reported inhibition at 0.5 µM; entries follow

{"molecule": "Cc1ccc(C(=O)Nc2ccc(CN3CCN(C)CC3)c(C(F)(F)F)c2)cc1C#Cc1c(N)ncc2ccc(Cl)cc12", "inhibition at 0.5 µM (%)": 25}
{"molecule": "Cc1ccc(C(=O)Nc2ccc(CN3CCN(C)CC3)c(C(F)(F)F)c2)cc1C#Cc1cnc(N)c2ccccc12", "inhibition at 0.5 µM (%)": 31}
{"molecule": "Cc1ccc(C(=O)Nc2ccc(CN3CCN(C)CC3)c(C(F)(F)F)c2)cc1C#Cc1cnc(N)c2ncccc12", "inhibition at 0.5 µM (%)": 64}
{"molecule": "COc1cc2nc(N)nc(C#Cc3cc(C(=O)Nc4ccc(CN5CCN(C)CC5)c(C(F)(F)F)c4)ccc3C)c2cc1OC", "inhibition at 0.5 µM (%)": 4}
{"molecule": "Cc1ccc(C(=O)Nc2ccc(CN3CCN(C)CC3)c(C(F)(F)F)c2)cc1C#Cc1cc(N)nc2ccccc12", "inhibition at 0.5 µM (%)": 0}

----------
pKd: −log10 of the molar value.
Consider compounds characterized by their pKd with FGR (Homo sapiens (Human)).
Sequence (P09769 whole entry): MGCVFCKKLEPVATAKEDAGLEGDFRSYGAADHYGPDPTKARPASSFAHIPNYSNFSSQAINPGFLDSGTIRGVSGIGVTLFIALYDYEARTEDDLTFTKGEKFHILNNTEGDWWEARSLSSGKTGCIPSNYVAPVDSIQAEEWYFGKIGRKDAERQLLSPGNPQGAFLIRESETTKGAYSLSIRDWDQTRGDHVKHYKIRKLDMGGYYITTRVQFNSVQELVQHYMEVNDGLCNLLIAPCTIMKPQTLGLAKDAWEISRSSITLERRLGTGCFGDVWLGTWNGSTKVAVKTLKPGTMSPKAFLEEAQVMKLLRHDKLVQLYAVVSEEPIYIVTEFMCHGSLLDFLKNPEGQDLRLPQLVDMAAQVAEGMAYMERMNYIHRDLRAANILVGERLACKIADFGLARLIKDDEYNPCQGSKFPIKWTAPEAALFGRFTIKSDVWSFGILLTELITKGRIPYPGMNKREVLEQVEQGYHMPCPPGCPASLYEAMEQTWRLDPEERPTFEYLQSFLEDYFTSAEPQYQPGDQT
readout.type: pKd

{"compound": "Cc1ccc(C(=O)Nc2ccc(CN3CCN(C)CC3)c(C(F)(F)F)c2)cc1C#Cc1c(N)ncc2ccc(Cl)cc12 [HSN286]", "endpoint.value": 8.15}
{"compound": "Cc1ccc(C(=O)Nc2ccc(CN3CCN(C)CC3)c(C(F)(F)F)c2)cc1C#Cc1cnc(N)c2ncccc12 [HSN356]", "endpoint.value": 8.10}

----------
biological target: FGFR1 (Homo sapiens (Human), UniProt P11362); assay: Reaction Biology HotSpot kinase assay; format: biochemical; details: 500 nM compound; read-out: Percentage kinase inhibition FGFR1
Sequence (P11362 22-822): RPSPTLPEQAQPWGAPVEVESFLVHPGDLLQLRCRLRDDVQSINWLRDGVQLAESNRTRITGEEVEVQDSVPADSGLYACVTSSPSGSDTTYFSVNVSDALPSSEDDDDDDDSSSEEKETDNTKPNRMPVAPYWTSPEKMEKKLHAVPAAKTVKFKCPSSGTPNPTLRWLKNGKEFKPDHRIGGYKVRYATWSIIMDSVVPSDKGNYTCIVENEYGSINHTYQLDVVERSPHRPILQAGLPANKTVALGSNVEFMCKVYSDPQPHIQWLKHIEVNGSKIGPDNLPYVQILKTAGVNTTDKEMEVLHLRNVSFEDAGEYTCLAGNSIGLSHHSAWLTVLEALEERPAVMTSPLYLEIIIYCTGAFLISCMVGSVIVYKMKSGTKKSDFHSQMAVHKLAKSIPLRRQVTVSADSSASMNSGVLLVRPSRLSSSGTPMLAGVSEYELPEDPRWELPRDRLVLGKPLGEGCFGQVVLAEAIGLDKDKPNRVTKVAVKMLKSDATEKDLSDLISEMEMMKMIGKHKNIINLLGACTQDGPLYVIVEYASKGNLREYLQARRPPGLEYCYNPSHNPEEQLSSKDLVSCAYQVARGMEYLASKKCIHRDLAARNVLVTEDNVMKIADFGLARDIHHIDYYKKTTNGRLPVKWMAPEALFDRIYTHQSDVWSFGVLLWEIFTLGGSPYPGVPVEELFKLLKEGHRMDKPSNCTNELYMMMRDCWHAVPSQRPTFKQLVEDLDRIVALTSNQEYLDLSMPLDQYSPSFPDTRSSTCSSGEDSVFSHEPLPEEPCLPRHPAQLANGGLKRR
Readings of inhibition at 0.5 µM for the listed compounds

{"compound": "Cc1ccc(C(=O)Nc2ccc(CN3CCN(C)CC3)c(C(F)(F)F)c2)cc1C#Cc1cc(N)nc2ccccc12 [HSN285]", "inhibition at 0.5 µM / %": 0}
{"compound": "COc1cc2nc(N)nc(C#Cc3cc(C(=O)Nc4ccc(CN5CCN(C)CC5)c(C(F)(F)F)c4)ccc3C)c2cc1OC [HSN325]", "inhibition at 0.5 µM / %": 58}
{"compound": "Cc1ccc(C(=O)Nc2ccc(CN3CCN(C)CC3)c(C(F)(F)F)c2)cc1C#Cc1c(N)ncc2ccc(Cl)cc12 [HSN286]", "inhibition at 0.5 µM / %": 98}
{"compound": "Cc1ccc(C(=O)NCCN2CCCCC2)cc1C#Cc1c(N)ncc2ccc(Cl)cc12 [HSN248]", "inhibition at 0.5 µM / %": 9}
{"compound": "Cc1ccc(C(=O)Nc2ccc(CN3CCN(C)CC3)c(C(F)(F)F)c2)cc1C#Cc1c(N)ncc2ccccc12 [HSN352]", "inhibition at 0.5 µM / %": 100}

----------
system: MOLM14; assay: Anti-proliferative effects in leukemia panel; type: cell-based; conditions: Homo sapiens, MOLM-14
Below: a set of entries, each annotated with reported IC50.
readout.type: IC50 (µM)

{"compound": "CC1(COc2ccc3c(c2)ncn3-c2ccc3cccc(N4CCC(N)CC4)c3n2)COC1 [Crenolanib, reference compound]", "readout.type": "IC50", "unit.abbreviation": "µM", "relation.sign": "=", "endpoint.value": 0.004}
{"compound": "Nc1ncc2[nH]ccc2c1C#Cc1ccc(C2=NCCN2)cc1 [HSM1781]", "readout.type": "IC50", "unit.abbreviation": "µM", "relation.sign": ">", "endpoint.value": 5}
{"compound": "N=C(NO)c1cccc(C#Cc2c(N)ncc3ccc(Cl)cc23)c1 [HSM1819]", "readout.type": "IC50", "unit.abbreviation": "µM", "relation.sign": "=", "endpoint.value": 0.06}
{"compound": "N=C(N)c1ccc(/N=N/c2c(N)ncc3ccc(Br)cc23)cc1 [HSW630-1]", "readout.type": "IC50", "unit.abbreviation": "µM", "relation.sign": "=", "endpoint.value": 0.15}
{"compound": "Nc1ncc2ccc(Cl)cc2c1C#Cc1ccc(C2=NCCN2)cc1 [HSM1651]", "readout.type": "IC50", "unit.abbreviation": "µM", "relation.sign": "=", "endpoint.value": 0.11}
{"compound": "CC(C)(C)c1cc(NC(=O)Nc2ccc(-c3cn4c(n3)sc3cc(OCCN5CCOCC5)ccc34)cc2)no1 [Quizartinib, quizartinib, reference compound]", "readout.type": "IC50", "unit.abbreviation": "µM", "relation.sign": "=", "endpoint.value": 0.001}
{"compound": "Nc1nccc(Cl)c1C#Cc1ccc(C2=NCCN2)cc1 [HSM1798]", "readout.type": "IC50", "unit.abbreviation": "µM", "relation.sign": ">", "endpoint.value": 5}
{"compound": "CC1(C)CNC(c2ccc(C#Cc3c(N)ncc4ccc(Cl)cc34)cc2)=N1 [HSM1743]", "readout.type": "IC50", "unit.abbreviation": "µM", "relation.sign": "=", "endpoint.value": 0.3}
